// data source = patent US7767659B2

Tested on: A-549
Assay Details: cells
Measurement Conditions: Homo sapiens, A549, 48 h, read-out: A549 LC50
Lab note: cut-off is 1000 nM. Strictly less in CC50 is class 1. Exactly 1000 nM or more is class 0.

Below are worked cases with known answers.
| Compound | Cat |
| --- | --- |
| COc1cc2c(cc1O)CCN[C@]21CS[C@@H]2c3c(OC(=O)/C=C/c4ccccc4)c(C)c4c(c3[C@H](COC1=O)N1C2[C@@H]2N[C@@H](Cc3cc(C)c(OC)c(O)c32)[C@@H]1C#N)OCO4 (stereo partly shown) | class 1 |
| COc1c(C)cc2c(c1O)[C@@H]1C3[C@@H]4SCC(=O)C(=O)NC[C@@H](c5c6c(c(C)c(OC(C)=O)c54)OCO6)N3[C@@H](C#N)[C@H](C2)N1C (stereo partly shown) | class 0 |
| C=CCN1[C@@H]2c3c(cc(C)c(OC)c3O)C[C@H]1[C@H](C#N)N1C2[C@@H]2SC[C@]3(NCCc4cc(OC(=O)OC(C)(C)C)c(OC)cc43)C(=O)OC[C@H]1c1c3c(c(C)c(O)c12)OCO3 (stereo partly shown) | class 0 |
| COc1cc2c(cc1O)CCN[C@]21CS[C@@H]2c3c(OC(C)=O)c(C)c4c(c3[C@H](COC1=O)N1C2C2c3c(cc(C)c(OC)c3O)C[C@@H]([C@@H]1C#N)N2C)OCO4 (stereo partly shown) | class 0 |
| COc1c(C)cc2c(c1O)C1C3[C@@H]4SCC(=O)C(=O)OC[C@@H](c5c6c(c(C)c(OC(C)=O)c54)OCO6)N3[C@@H](O)[C@H](C2)N1C (stereo partly shown) | class 1 |

Query :: Below 1000 nM on CC50? Entry C=CCN1[C@@H]2c3c(cc(C)c(OC)c3O)C[C@H]1[C@H](C#N)N1C2[C@@H]2SC[C@]3(NCCc4c3[nH]c3ccccc43)C(=O)OC[C@H]1c1c3c(c(C)c(OC(C)=O)c12)OCO3 (stereo partly shown)
Result :: class 0

Query :: In plain terms, does COc1ccc2[nH]c3c(c2c1)CCN[C@]31CS[C@@H]2c3c(OC(C)=O)c(C)c4c(c3[C@H](COC1=O)N1C2[C@@H]2N[C@@H](Cc3cc(C)c(OC)c(O)c32)[C@@H]1C#N)OCO4 (stereo partly shown) come in under 1000 nM for CC50?
Result :: class 1

----------
Tested on: A-549
Assay Details: cells
Measurement Conditions: Homo sapiens, A549, 48 h, read-out: A549 LC50
Attribute: CC50
Give just the number in µM; leave the unit off.

Query :: Field request: CC50 | item: CCCCCCCC(=O)Oc1c(C)c2c(c3c1[C@H]1SC[C@]4(NCCc5cc(O)c(OC)cc54)C(=O)OC[C@@H]3N3C1[C@@H]1N[C@@H](Cc4cc(C)c(OC)c(O)c41)[C@@H]3O)OCO2 (stereo partly shown) [compound 54]
Result :: 0.636

Query :: Using the record for COc1c(C)cc2c(c1O)[C@H]1N[C@@H](C2)[C@H](O)N2C1[C@@H]1SC[C@]3(NCCc4c3[nH]c3ccc(O)cc43)C(=O)OC[C@H]2c2c3c(c(C)c(OC(C)=O)c21)OCO3 (stereo partly shown) [compound 65] , report its CC50.
Result :: 0.313

Query :: Which CC50 is reported for this compound? COc1c(C)cc2c(c1O)[C@H]1N[C@@H](C2)[C@H](O)N2C1[C@@H]1SC[C@]3(NCCc4c3[nH]c3ccc(C)cc43)C(=O)OC[C@H]2c2c3c(c(C)c(OC(C)=O)c21)OCO3 (stereo partly shown) [compound 66]
Result :: 0.874

Query :: What CC50 value was documented for this compound, COc1c(C)cc2c(c1O)[C@H]1N[C@@H](C2)[C@H](C#N)N2C1[C@@H]1SC[C@]3(NCCc4c3[nH]c3ccccc43)C(=O)OC[C@H]2c2c3c(c(C)c(OC(C)=O)c21)OCO3 (stereo partly shown) [compound 59] ?
Result :: 0.273

Query :: Suppose we examine the compound COC1=C(C)C(=O)C2=C(C1=O)[C@@H]1C3[C@@H]4SC[C@]5(NCCc6c5[nH]c5ccccc65)C(=O)OC[C@@H](c5c6c(c(C)c(OC(C)=O)c54)OCO6)N3[C@@H](O)[C@H](C2)N1C (stereo partly shown) [ET-736-quinone] ; what CC50 value has been reported?
Result :: 0.109

Query :: Fill in: CC50 of C=CCN1[C@@H]2c3c(cc(C)c(OC)c3O)C[C@H]1[C@H](C#N)N1C2[C@@H]2SC[C@]3(NCCc4cc(OC(=O)OC(C)(C)C)c(OC)cc43)C(=O)OC[C@H]1c1c3c(c(C)c(OC(=O)/C=C/c4ccccc4)c12)OCO3 (stereo partly shown) [compound 47] is ___
Result :: 10.2

Query :: Quick one: CC50 of COc1cc2c(cc1O)CCN[C@]21CS[C@@H]2c3c(OC(=O)/C=C/c4ccccc4)c(C)c4c(c3[C@H](COC1=O)N1C2[C@@H]2N[C@@H](Cc3cc(C)c(OC)c(O)c32)[C@@H]1O)OCO4 (stereo partly shown) [compound 53] ?
Result :: 2.21

----------
Tested on: SK-MEL-28
Assay Details: Inhibition of cells growth by colorimetric assay (SRB)
Measurement Conditions: Homo sapiens, SK-MEL-28, 48 h, read-out: MEL-28 GI50
# strict inequality: GI50 < 30 nM yields Condition met, everything else yields Condition not met

| Molecule | Target Or System | Cat |
| --- | --- | --- |
| C=CCN1[C@@H]2c3c(cc(C)c(OC)c3O)C[C@H]1[C@H](C#N)N1C2[C@@H]2SC[C@]3(NCCc4c3[nH]c3ccc(C)cc43)C(=O)OC[C@H]1c1c3c(c(C)c(OC(C)=O)c12)OCO3 (some centres unmarked) | SK-MEL-28 | Condition not met |
| COc1c(C)cc2c(c1O)[C@H]1N[C@@H](C2)[C@H](C#N)N2C1[C@@H]1SC[C@]3(NCCc4c3[nH]c3ccccc43)C(=O)OC[C@H]2c2c3c(c(C)c(OC(C)=O)c21)OCO3 (some centres unmarked) | SK-MEL-28 | Condition met |
| C=CCN1[C@@H]2c3c(cc(C)c(OC)c3O)C[C@H]1[C@H](C#N)N1C2[C@@H]2SC[C@]3(NCCc4cc(OC(=O)OC(C)(C)C)c(OC)cc43)C(=O)OC[C@H]1c1c3c(c(C)c(OC(C)=O)c12)OCO3 (some centres unmarked) | SK-MEL-28 | Condition met |
| COc1c(C)cc2c(c1O)C1C3[C@@H]4SCC(=O)C(=O)OC[C@@H](c5c6c(c(C)c(OC(C)=O)c54)OCO6)N3[C@@H](O)[C@H](C2)N1C (some centres unmarked) | SK-MEL-28 | Condition not met |

# input for lookup
Query :: I'd appreciate it if you could check whether C=CCN1[C@@H]2c3c(cc(C)c(OC)c3O)C[C@H]1[C@H](C#N)N1C2[C@@H]2SC[C@]3(NCCc4cc(O)c(OC)cc43)C(=O)OC[C@H]1c1c3c(c(C)c(OC(=O)/C=C/c4ccccc4)c12)OCO3 (some centres unmarked) has GI50 smaller than 30 nM.
Result :: Condition not met

----------
Test system: DU-145
Assay Details: Inhibition of cells growth by colorimetric assay (SRB)
Measurement Conditions: Homo sapiens, DU-145, 48 h, read-out: DU145 LC50
Could you please mark satisfied for values of CC50 below 10 µM and not satisfied for values at or above it?

// below: answered compounds
| Compound | Cat |
| --- | --- |
| C=CCN1[C@@H]2c3c(cc(C)c(OC)c3O)C[C@H]1[C@H](C#N)N1C2[C@@H]2SC[C@]3(NCCc4cc(O)c(OC)cc43)C(=O)OC[C@H]1c1c3c(c(C)c(OC(=O)/C=C/c4ccccc4)c12)OCO3 (some centres unmarked) [compound 49] | not satisfied |
| COc1cc2c(cc1O)CCN[C@]21CS[C@@H]2c3c(OC(=O)/C=C/c4ccccc4)c(C)c4c(c3[C@H](COC1=O)N1C2[C@@H]2N[C@@H](Cc3cc(C)c(OC)c(O)c32)[C@@H]1O)OCO4 (some centres unmarked) [compound 53] | satisfied |
| COc1c(C)cc2c(c1O)C1C3[C@@H]4SCC(=O)C(=O)OC[C@@H](c5c6c(c(C)c(OC(C)=O)c54)OCO6)N3[C@@H](O)[C@H](C2)N1C (some centres unmarked) [Et-594] | satisfied |
| C=CCN1[C@@H]2c3c(cc(C)c(OC)c3O)C[C@H]1[C@H](C#N)N1C2[C@@H]2SC[C@]3(NCCc4c3[nH]c3ccccc43)C(=O)OC[C@H]1c1c3c(c(C)c(OC(C)=O)c12)OCO3 (some centres unmarked) [compound 55] | not satisfied |

Query :: Quick check: CC50 of C=CCN1[C@@H]2c3c(cc(C)c(OC)c3O)C[C@H]1[C@H](C#N)N1C2[C@@H]2SC[C@]3(NCCc4c3[nH]c3ccc(C)cc43)C(=O)OC[C@H]1c1c3c(c(C)c(OC(C)=O)c12)OCO3 (some centres unmarked) [compound 58] under 10 µM?
Result :: not satisfied
